- System: OVCAR-8 ovarian
- measurement notes: NCI tumour cell line growth inhibition, 48 h
Reported GI50 values are given for each entry in this list.

Example results:
>  <smiles entry>
COc1cccc(/C=C/c2nc3c(cnn3-c3ccccc3)c(=O)[nH]2)c1

>  <endpoint name>
GI50

>  <recorded result>
> 54.7 µM

$$$$
>  <smiles entry>
CC(C)(C)c1cc(C(=O)Nc2ccc(C(=O)NCCN)cc2)cc(C(C)(C)C)c1

>  <endpoint name>
GI50

>  <recorded result>
3.39 µM

$$$$
>  <smiles entry>
C=C1c2ccccc2C(=O)c2c1c1c(C(=O)OC)c(OC(=O)OCc3ccc([N+](=O)[O-])cc3)ccc1n2Cc1ccccc1

>  <endpoint name>
GI50

>  <recorded result>
2.51 µM

$$$$
>  <smiles entry>
O=C1CC[C@H](N2Cc3c(OCc4ccc(CN5CCOCC5)cc4)cccc3C2=O)C(=O)N1

>  <endpoint name>
GI50

>  <recorded result>
> 100 µM

$$$$
>  <smiles entry>
O=C(Nc1cccc(-n2cc(-c3ccncc3)c(-c3ccc(O)c(Cl)c3)n2)c1)c1ccc2c(c1)OCCO2

>  <endpoint name>
GI50

>  <recorded result>
3.67 µM

$$$$

Consider the additional compound presented here.
Give the value of GI50 reported for the following: O=S(=O)(NCCNc1nccc(-c2c(-c3ccc(F)c(O)c3)nc3sccn23)n1)c1ccc(Cl)cc1
2.18 µM

----------
- System: SN12C renal
- measurement notes: NCI tumour cell line growth inhibition, 48 h
endpoint name: TGI (µM)
Field: numeric (µM). Do not append units.

>  <smiles entry>
N#Cc1ccc(/C=C(/C(=O)c2ccccc2)c2ccccc2)cc1

>  <target or test system>
SN12C renal

>  <unit>
µM

>  <TGI>
25

$$$$
>  <smiles entry>
c1ccc2cc3c(cc2c1)Nc1c2ccccc2nc2cccc-3c12

>  <target or test system>
SN12C renal

>  <unit>
µM

>  <TGI>
3.08

$$$$
>  <smiles entry>
O=C1/C(=C/c2ccc3c(c2)OCCO3)CCC/C1=C\c1ccc2c(c1)OCCO2

>  <target or test system>
SN12C renal

>  <unit>
µM

>  <TGI>
54.9

$$$$

Give the value of TGI reported for the following: COc1cc(Cl)cc(-c2nn(-c3cccc(NC(=O)Nc4cccc(C(F)(F)F)c4)c3)cc2-c2ccncc2)c1
18.5

----------
- Test system: UACC-257 melanoma
- measurement notes: NCI tumour cell line growth inhibition, 48 h
endpoint name: TGI

Example results:
>  <molecule>
O=C(/C=C/c1ccc(OCc2ccccc2)cc1)NCc1ccc(C(=O)NCCc2c[nH]c3ccccc23)cc1

>  <TGI>
> 100 µM

$$$$
>  <molecule>
Clc1cc2ccccc2c2ccccc12

>  <TGI>
> 100 µM

$$$$
>  <molecule>
COC(=O)CCC1=NCC(C)(C)O1

>  <TGI>
> 10 µM

$$$$
>  <molecule>
c1ccc2c(c1)nn1c3ccc4nonc4c3[n-][n+]21

>  <TGI>
> 100 µM

$$$$
>  <molecule>
CC1=CC(C)(c2c[nH]c3ccccc23)CC(C)(C)c2c1[nH]c1ccccc21 (stereo unspecified)

>  <TGI>
41.2 µM

$$$$

Give the value of TGI reported for the following: C[C@]12Cc3cnc(-c4ccccc4)nc3C[C@@H]1CC[C@@H]1[C@@H]2CC[C@@]2(C)[C@H]1CC[C@]2(C)O
44.9 µM

Give the value of TGI reported for the following: CNC(=O)N(CCC#N)CCN(C(=O)N(C)C)c1ccccc1
> 100 µM

Give the value of TGI reported for the following: Nc1ccc(-c2cc(C(=O)Nc3nccs3)[nH]c(=S)n2)cc1
> 100 µM

----------
- Tested on: IGROV1 ovarian
- measurement notes: NCI tumour cell line growth inhibition, 48 h
endpoint name: TGI

Example results:
>  <compound>
CCc1c2cc(OC)c(OC)cc2cc2c3cc(OC)c(OC)cc3cc[n+]12 (tested in a mixture with another compound)

>  <endpoint name>
TGI

>  <recorded result>
> 85.3 µM

$$$$
>  <compound>
O=C(CC(O)(C(F)(F)F)C(F)(F)Cl)CC(O)(C(F)(F)F)C(F)(F)Cl (centres undefined)

>  <endpoint name>
TGI

>  <recorded result>
> 10 µM

$$$$
>  <compound>
COc1cc2c(cc1OC)C1c3ccccc3CCN1CCC2 (centres undefined)

>  <endpoint name>
TGI

>  <recorded result>
> 100 µM

$$$$

Give the value of TGI reported for the following: C/C(=N\NC(N)=S)c1ccc(C)c(C)c1
> 100 µM

Give the value of TGI reported for the following: CNCCN[C@@H]1c2cc3c(cc2[C@@H](c2cc(OC)c(O)c(OC)c2)[C@H]2C(=O)OC[C@@H]21)OCO3
2.63 µM

Give the value of TGI reported for the following: C[C@]12Cc3cnc(-c4ccccc4)nc3C[C@@H]1CC[C@@H]1[C@@H]2CC[C@@]2(C)[C@H]1CC[C@]2(C)O
63.3 µM

Give the value of TGI reported for the following: CCOC(=O)/C(=C\NC(C)(C)C)c1nc2ccccc2[nH]1
69.4 µM

Give the value of TGI reported for the following: CC(C)(C)C1CCC2c3c([nH]c4ncccc34)C3C(=O)N(c4ccccc4)C(=O)C3C2C1 (centres undefined)
> 100 µM

Give the value of TGI reported for the following: C=C1C(=O)O[C@H]2C1C[C@@H](O)/C(C)=C/CC[C@@]1(C)O[C@H]21 (some centres undefined)
> 43.8 µM

----------
- Test system: SF-268 CNS
- measurement notes: NCI tumour cell line growth inhibition, 48 h
Reported TGI values are given for each entry in this list.
Field: numeric (µM). Do not append units.

>  <molecule>
O=C1C(=C2CCCC2)CCC1CN1CCCCC1 (stereo not given)

>  <target or test system>
SF-268 CNS

>  <recorded result>
37.5

$$$$

Consider the additional molecule presented here.
Provide TGI, tested on SF-268 CNS, for O=C1c2c(Br)sc(Br)c2[C@@H](Cl)[C@H]1Cl .
39.8

----------
Reported TGI values are given for each entry in this list.
- System: CCRF-CEM leukemia
- measurement notes: NCI tumour cell line growth inhibition, 48 h

Give the value of TGI reported for the following: NC(=S)N=Nc1c(O)[nH]c2c(Cl)cc(Cl)cc12
> 100 µM

----------
- Test system: NCI/ADR-RES ovarian
- measurement notes: NCI tumour cell line growth inhibition, 48 h; in the data active = GI50 below about 0.43 µM; inactive = the rest
Bench note: report the call from 1 (yes) for active, 0 (no) for inactive

Observe how each entry below is paired with its result.
>  <compound>
Cc1c(Cl)c(=O)oc2cc(OC/C=C3\CCC(=O)O3)ccc12

>  <assigned class>
0 (no)

$$$$
>  <compound>
CN(C)C(=O)OCc1nc2c(N3CCOCC3)nc(-c3ccccc3)nc2n1C

>  <assigned class>
0 (no)

$$$$
>  <compound>
CCC1C(C)C=NN1c1nc(N)nc(C(C#N)=Nc2ccc(N(C)C)cc2)n1 (centres undefined)

>  <assigned class>
0 (no)

$$$$
>  <compound>
COc1cccc(/C=C/c2nc3c(cnn3-c3ccccc3)c(=O)[nH]2)c1

>  <assigned class>
0 (no)

$$$$
>  <compound>
CC[C@@]1(OC(=O)CN(C)C)C(=O)OCc2c1cc1n(c2=O)Cc2cc3c(N)cccc3nc2-1

>  <assigned class>
1 (yes)

$$$$
>  <compound>
CO[C@@H]1CCN(c2nccc(Nc3cc4c(C(C)C)ccc(N5CC(CS(C)(=O)=O)[C@H]5C)c4cn3)n2)C[C@@H]1F (some centres undefined)

>  <assigned class>
0 (no)

$$$$
>  <compound>
COc1cc(-n2cc(-c3ccccc3)[nH]c2=O)cc(OC)c1OC

>  <assigned class>
0 (no)

$$$$
>  <compound>
CCCOc1cc2ccccc2cc1C(=O)Nc1nc(NC)c2c(ccc3nccc32)[nH]1

>  <assigned class>
0 (no)

$$$$

Test call for this compound, please: CNC(=O)c1cc(Oc2cccc3nc(NC(=O)Nc4cc(C(F)(F)F)cc(C(F)(F)F)c4)ccc23)ccn1
0 (no)

----------
- Test system: HS 578T breast
- measurement notes: NCI tumour cell line growth inhibition, 48 h
Reported TGI values are given for each entry in this list.
Field: numeric (µM). Do not append units.

Example results:
>  <smiles entry>
OB(O)c1ccccc1C#Cc1ccccc1B(O)O

>  <target or test system>
HS 578T breast

>  <endpoint name>
TGI

>  <recorded result>
51

$$$$
>  <smiles entry>
CC(C)=Cc1cc(C)c2c3c(c(O)c(O)c(C)c13)C(C)=CC2=O

>  <target or test system>
HS 578T breast

>  <endpoint name>
TGI

>  <recorded result>
74.4

$$$$

Give the value of TGI reported for the following: CCN(CC)c1c(-c2ccccc2)n[nH]c1C(=O)OC
49.4

----------
- System: HOP-62 NSCLC
- measurement notes: NCI tumour cell line growth inhibition, 48 h
Reported TGI values are given for each entry in this list.

>  <compound>
CNCC/C=C1\c2cc3c(cc2-c2c1c1cc(OC)c(OC)cc1c(=O)n2C)OCO3

>  <TGI>
21.9 µM

$$$$
>  <compound>
O/N=C1\CC2(N3CCOCC3)CCC1(c1ccccc1)CC2

>  <TGI>
> 100 µM

$$$$
>  <compound>
Cc1ccc(S(=O)(=O)N2CCCSCCSCCCN(S(=O)(=O)c3ccc(C)cc3)CC2)cc1

>  <TGI>
> 100 µM

$$$$
>  <compound>
COc1cccc(/C=C/c2nc3c(cnn3-c3ccccc3)c(=O)[nH]2)c1

>  <TGI>
> 100 µM

$$$$
>  <compound>
CC[C@@]1(OC(=O)C(N)CCCCN)C(=O)OCc2c1cc1n(c2=O)Cc2cc3ccccc3nc2-1 (stereo not given in full)

>  <TGI>
0.0667 µM

$$$$

Give the value of TGI reported for the following: Cn1c(=O)c2sc3c4sc5c(=O)n(C)c6ccccc6c5c4sc3c2c2ccccc21
> 100 µM

Give the value of TGI reported for the following: COC(=O)C1CCC(=O)N1CN(C(C)=O)c1cc(OC)ccc1OC (stereo not given)
> 100 µM

Give the value of TGI reported for the following: COC1=N[C@H](C(C)C)C(OC)=N[C@H]1Cc1ccc(C[C@@H]2N=C(OC)[C@@H](C(C)C)N=C2OC)s1
> 100 µM

Give the value of TGI reported for the following: CCCCC(C)/C=C/C(=O)C1=C(O)/C(=C/C(=O)O)OC1=O (stereo not given)
> 100 µM

Give the value of TGI reported for the following: COCCOCCOCc1n(Cc2ccc3ccccc3c2)c2ccccc2[n+]1Cc1ccc2ccccc2c1
2.59 µM
